Test system: EKVX
procedureText: NCI tumour cell line growth inhibition, 48 h
Calls of active or inactive are those of the source. Cut-off read from the data, not from the text of the source: active = GI50 up to about 1.1 µM and inactive = higher.
A collection of compounds and their measured GI50

compound	result
Cc1nc2c(n1Cc1ccc(Cl)cc1)C(=O)c1ccccc1C2=O	> 75 µM (inactive)
CC1=Nc2c(O)nc(S)nc2NC(c2c(Cl)cccc2Cl)C1 (stereo unspecified)	7.18 µM (inactive)
CCc1cc(O)c(Cl)c(C)c1Cl	11.9 µM (inactive)
C#Cc1cccc(N2C(=O)c3c(c(-c4ccccc4)c(-c4ccc(Cc5ccc(-c6c(-c7ccccc7)c7c(c(-c8ccccc8)c6-c6ccccc6)C(=O)N(c6cccc(C#C)c6)C7=O)cc5)cc4)c(-c4ccccc4)c3-c3ccccc3)C2=O)c1	51.2 µM (inactive)
C/C=C(\CCOS(=O)(=O)c1ccc(C)cc1)[Si](C)(C)C	> 100 µM (inactive)

Entry COc1cc(C2c3cc4c(cc3OC3(OC)COC(=O)C23)OCO4)cc(OC)c1OC(C)=O (stereo unspecified) : reported GI50 = ? > 35.8 µM (inactive)

Entry COc1ccc([N+](=O)[O-])c2c(NCCCN(C)C)ccnc12 : reported GI50 = ? 4.92 µM (inactive)

Entry O=C(CN(c1ccc(S(=O)(=O)O)cc1)c1ccc(S(=O)(=O)O)cc1)Nn1cnc2ccc(S(=O)(=O)N(c3ccc(S(=O)(=O)O)cc3)c3ccc(S(=O)(=O)O)cc3)cc2c1=O : reported GI50 = ? > 100 µM (inactive)

Entry COC(=O)C(=O)C(C#N)c1c(Cl)cccc1Cl (stereo unspecified) : reported GI50 = ? > 100 µM (inactive)

Entry O=c1c(C(c2ccco2)c2c(O)oc3ccccc3c2=O)c(O)oc2ccccc12 : reported GI50 = ? 47 µM (inactive)

Entry COc1cc(/C=C2\CC/C(=C\c3cc(OC)c(O)c(OC)c3)C2=O)cc(OC)c1O : reported GI50 = ? 3.13 µM (inactive)

Entry O=C(O)C1CCN(Cc2oc(CO)cc(=O)c2O)C1 (stereo unspecified) : reported GI50 = ? > 100 µM (inactive)

Entry C[n+]1c2ccccc2c2/c(=C\C#N)c3ccccc3n21 : reported GI50 = ? 2.44 µM (inactive)

Entry CC12CCC(C1)C(C)(C)C2OC(=O)c1ccccc1C(=O)O (stereo unspecified) : reported GI50 = ? > 100 µM (inactive)

Entry COc1ccc(CCN2COc3ccc4ccc(=O)oc4c3C2)cc1OC : reported GI50 = ? > 100 µM (inactive)

Entry CC1(O)CC(C(F)(F)F)(C(F)(F)F)OC1=O (stereo unspecified) : reported GI50 = ? > 10 µM (inactive)

Entry N#C/N=C1\NCCC(=O)N1CCc1c[nH]c2ccccc12 : reported GI50 = ? > 100 µM (inactive)

Entry SC1=Nc2ccccc2-c2nc(-c3ccccc3)cc(-c3ccc(Br)cc3)c2C1 : reported GI50 = ? 1.33 µM (inactive)

Entry Cc1ccc(NC(=O)CC2C(=O)Nc3ccccc3[S+]2[O-])c(C)c1 (stereo unspecified) : reported GI50 = ? > 61.7 µM (inactive)

Entry COc1cc2c(c(OC)c1OC)C(=O)NCCC2 : reported GI50 = ? > 100 µM (inactive)

Entry C/C(CC(=O)Nc1ccc(Cl)c(Cl)c1)=N/NC(=O)C[N+](C)(C)C : reported GI50 = ? > 100 µM (inactive)

* * *

Observed GI50, system HCT-15.
Response body: numeric value in µM, unit text excluded.

Check out these entries, answers already filled in.
smilesInput	testedSystem	GI50 (µM)
COc1cc(/C=C2\C[C@H]3[C@@H]4CC=C5C[C@@H](N6CCCC6)CC[C@]5(C)[C@H]4CC[C@]3(C)[C@H]2O)cc(OC)c1OC	HCT-15	11.7
CCCCCCCCCC[C@H](O)[C@H]1CC[C@H]([C@H]2CC[C@H]([C@H](O)CC[C@H](O)CCCCCCC[C@@H](O)CC3=C[C@H](C)OC3=O)O2)O1	HCT-15	43.9

We now examine a further molecule.
Entry N#Cc1c2c(c(N=[N+]=[N-])n3c1nc1ccccc13)CCCC2 : reported GI50 = ? 2.07

* * *

System: LOX IMVI
procedureText: NCI tumour cell line growth inhibition, 48 h
The source made the active and inactive calls. Cut-off read from the data, not from the text of the source: active = GI50 up to about 1.1 µM and inactive = higher.
propertyName: GI50

Check out these entries, answers already filled in.
molecule	propertyName	result
C1CSCCSCSCCS1	GI50	> 100 µM (inactive)
CC12CC(c3ccccc3O1)C(C(=O)Nc1ccc(Cl)cc1Cl)C(=O)N2 (stereo unspecified)	GI50	22.5 µM (inactive)
CNc1nnnn1C1OC(CO)C(O)C1O (stereo unspecified)	GI50	> 100 µM (inactive)
COc1ccc(/C=C2\CCc3cc(OC)c(OC)cc3C2=O)cc1	GI50	> 10 µM (inactive)
CC(=O)C(C(C)=O)[C@@H]1OC(C)(C)O[C@@H]1[C@H]1COC(C)(C)O1	GI50	87.1 µM (inactive)
CN(C)CCC(/C=C/c1ccccc1)=N\Nc1ccc(Cl)cc1	GI50	1.59 µM (inactive)

Entry O=C(OC1CCC2OOC1O2)c1ccc([N+](=O)[O-])cc1 (stereo unspecified) : reported GI50 = ? > 100 µM (inactive)

Entry C/C=C(\CCOS(=O)(=O)c1ccc(C)cc1)[Si](C)(C)C : reported GI50 = ? > 100 µM (inactive)

Entry c1ccc(C2=NN=C3C(c4ccccc4)=Nc4ccccc4N3C2)cc1 : reported GI50 = ? 10 µM (inactive)

Entry CCCCNC(=O)N/C=C1\C(=O)Oc2ccccc2C1=O : reported GI50 = ? 70.1 µM (inactive)

Entry COc1cc(/C=C2\CCC(C)/C(=C\c3cc(OC)c(OC)c(OC)c3)C2=O)cc(OC)c1OC (stereo unspecified) : reported GI50 = ? 3.27 µM (inactive)

* * *

Test system: CAKI-1
procedureText: NCI tumour cell line growth inhibition, 48 h
The source made the active and inactive calls. Rule as the data show it: active = GI50 up to about 1.1 µM and inactive = higher.
propertyName: GI50

molecule	GI50
CC1CC[P+](c2ccccc2)(c2ccccc2)c2c1ccc1ccccc21 (stereo unspecified)	6.75 µM (inactive)

Entry O=C1CCC23CC(C=CC=C12)n1c(=O)n(-c2ccccc2)c(=O)n13 (stereo unspecified) : reported GI50 = ? > 50.6 µM (inactive)

Entry Cc1cc(=O)cc2sc3cc(Cl)ccc3nc1-2 : reported GI50 = ? 19.7 µM (inactive)

Entry Cn1c(N/N=C/c2ccccc2)nc(-c2ccc([N+](=O)[O-])cc2)c(C#N)c1=O : reported GI50 = ? 54.5 µM (inactive)

Entry COc1ccc(C(=O)CC(c2ccccc2)[C@H]2C(c3ccc(OC)cc3)=Nc3c(nc(SC)n(C)c3=O)NC2c2ccccc2)cc1 (stereo partly specified) : reported GI50 = ? > 100 µM (inactive)

Entry N=C(N)NS(=O)(=O)c1ccc(Nc2c3ccccc3nc3c(C(=O)Nc4ccc(S(N)(=O)=O)cc4)cccc23)cc1 : reported GI50 = ? > 100 µM (inactive)

Entry COc1cc(C2c3c(ccc4ccccc34)C(=O)C3CCC(=O)N32)cc(OC)c1OC (stereo unspecified) : reported GI50 = ? > 50 µM (inactive)

Entry C=C(C)[C@@]1(O[Si](C)(C)C)CCCC[C@@H]1CC(Sc1ccccc1)Sc1ccccc1 : reported GI50 = ? 12.9 µM (inactive)

Entry C=C(CC(=O)Nc1ccc(C(=O)OC)o1)C(=O)OC : reported GI50 = ? 24.5 µM (inactive)

Entry C[n+]1c2ccccc2c(/C=N\NS(=O)(=O)c2ccc(O)c(C(=O)O)c2)c2ccccc21 : reported GI50 = ? 28.2 µM (inactive)

Entry CC(C)C(C)/C=C\C(C)C1CCC2C3=CC=C4CC(O)CCC4(C)C3CCC21C (stereo unspecified) : reported GI50 = ? > 43.7 µM (inactive)

* * *

Test system: HOP-92
procedureText: NCI tumour cell line growth inhibition, 48 h
Calls of active or inactive are those of the source. No stated cut-off is given here; in the data, active = GI50 up to about 1.1 µM and inactive = higher.
The reply should name one outcome from active, inactive

Examples from the recorded data:
compound	testedSystem	category
S=c1cc(S)c2c(=S)sc3nc4ccccn4c(=S)c3c2s1	HOP-92	inactive
O=C(COC(=O)c1cccc2c(=O)c3ccccc3[nH]c12)Nc1ccccc1	HOP-92	inactive
O=c1c2ccccc2nc(-c2ccccc2)n1NC(=S)Nc1ccc(Cl)cc1	HOP-92	inactive

Call for entry SC1=Nc2ccccc2-c2nc(-c3ccccc3)cc(-c3ccc(Br)cc3)c2C1 : inactive

Call for entry Cc1ccc(NC(=O)CC2C(=O)Nc3ccccc3[S+]2[O-])c(C)c1 (stereo not drawn) : inactive

Call for entry COCc1cc2c(cc1/C(=C/[N+](=O)[O-])CS(=O)(=O)c1ccccc1)OCO2 : inactive

Call for entry Cc1ncc([N+](=O)[O-])n1CCNC(=O)CCCn1cnc([N+](=O)[O-])n1 : inactive

Call for entry NCCOCC(N)C(=O)O (stereo not drawn) : inactive

* * *

System: MDA-N
procedureText: NCI tumour cell line growth inhibition, 48 h
Calls of active or inactive are those of the source. Cut-off read from the data, not from the text of the source: active = GI50 up to about 1.1 µM and inactive = higher.
The reply should name one outcome from 1.0 for active, 0.0 for inactive

Examples from the recorded data:
molecule	category
O=c1[nH]c2cc([N+](=O)[O-])c(N/N=C/c3ccc(Cl)cc3Cl)c([N+](=O)[O-])c2[nH]1	0.0
NC(=S)N/N=C/c1ncccc1N [TRIAPINE]	0.0
O=C(O)CCC(c1ccccc1)(c1ccccc1)c1ccccc1	0.0
c1cc(-c2ccc(-c3nc4ccc(C5=NCCN5)cc4s3)s2)ccc1C1=NCCN1	1.0
CCc1cc(O)c(Cl)c(C)c1Cl	0.0

Call for entry C=CC1(c2ccc(-c3ccccc3)cc2)OCCO1 : 0.0

Call for entry COc1cccc(N(CN2C(=O)CCC2OC)C(C)=O)c1 (stereo unspecified) : 0.0

Call for entry Cn1c(CC(O)c2nc3ccccc3n2C)nc2ccccc21 (stereo unspecified) : 0.0

Reference source: ChEMBL document CHEMBL1201862
